Test system: MDA-MB-468
measurement notes: Cytotoxicity against human MDA-MB-468 cells assessed as cell growth at 100 nM after 48 hrs by sulforhodamine B assay
Type: functional
run parameters: MDA-MB-468, 48 h, read-out: Activity
endpoint: growth at 0.1 µM (%)

[
  {
    "smiles input": "COc1cc(C)cc(-c2nn(CC#N)cc2-c2ccnc(-c3ccc(N(C)C)cc3)c2)c1",
    "endpoint": "growth at 0.1 µM",
    "quantity unit": "%",
    "readout number": -18
  },
  {
    "smiles input": "COc1cc(C)cc(-c2c(-c3ccnc(-c4ccc(C(C)=O)cc4)c3)cnn2CC#N)c1",
    "endpoint": "growth at 0.1 µM",
    "quantity unit": "%",
    "readout number": 68
  },
  {
    "smiles input": "COc1cc(C)cc(-c2nn(CC#N)cc2-c2ccc(-c3cccc(C(C)=O)c3)nc2)c1",
    "endpoint": "growth at 0.1 µM",
    "quantity unit": "%",
    "readout number": 9
  },
  {
    "smiles input": "COc1cc(C)cc(-c2c(-c3ccnc(-c4ccc(N(C)C)cc4)c3)cnn2CC#N)c1",
    "endpoint": "growth at 0.1 µM",
    "quantity unit": "%",
    "readout number": -50
  },
  {
    "smiles input": "Cc1cc(O)cc(-c2nn(CC#N)cc2-c2ccnc(-c3ccc(Oc4ccccc4)cc3)c2)c1",
    "endpoint": "growth at 0.1 µM",
    "quantity unit": "%",
    "readout number": 88
  },
  {
    "smiles input": "Cc1cc(O)cc(-c2nn(CC#N)cc2-c2ccnc(-c3ccc(N(C)C)cc3)c2)c1",
    "endpoint": "growth at 0.1 µM",
    "quantity unit": "%",
    "readout number": 77
  }
]
